# Tested on: myeloid leukemia patient primary cells Pat.7
# Method Description: cell viability (% survival relative to DMSO control); higher = less cytotoxic
# Measurement Context: 10 nM; 72 h
Readout Label: cell viability (%)
Write the number in % without appending the unit.

Examples with their reported cell viability follow.
| Smiles | cell viability (%) |
| --- | --- |
| O=c1[nH]c(=O)n([C@H]2C[C@H](O)[C@@H](CO)O2)cc1I | 69.3 |
| Nc1ccn([C@@H]2O[C@H](CO)[C@@H](O)C2(F)F)c(=O)n1 | 3.48 |
| O=C(Cc1cccc(OC(F)(F)F)c1)Nc1ccc(CCCCc2nnc(NC(=O)Cc3ccccn3)s2)nn1 | 74.7 |

Next:
// recorded cell viability for CCCCCCCCCCCCC/C=C/[C@@H](O)[C@H](CO)N(C)C : 65.6

* * *

# System: Mono-Mac-6
# Measurement Context: 72 h
Readout Label: IC50 (cell viability)

// solved cases for IC50 (cell viability) follow
| Compound | IC50 (cell viability) |
| --- | --- |
| Clc1cc(Cl)c(OCC#CI)cc1Cl | 2.84 µM |
| NS(=O)(=O)c1ccc(NC(=O)Cc2ccccc2)cc1 [4-(2-Phenylacetamido)Benzenesulfonamide] | > 10 µM |
| C#CCN[C@@H]1CCc2ccccc21 | > 10 µM |
| COc1cc(C2Oc3cc(C4Oc5cc(O)cc(O)c5C(=O)C4O)ccc3OC2CO)ccc1O (centres undefined) | > 10 µM |
| CC1Cc2ccccc2N1NC(=O)c1ccc(Cl)c(S(N)(=O)=O)c1 (centres undefined) [Indapamide] | > 10 µM |
| CC(C)(CCCCCCCCCCC(C)(C)CC(=O)O)CC(=O)O | > 10 µM |

Here's the next entry for you.
So, Cc1nnc(-c2ccc(N3CCC(Oc4ccccc4C(F)(F)F)CC3)nn2)s1 ? Its IC50 (cell viability) was > 10 µM

* * *

# System: myeloid leukemia patient primary cells Pat.9
# Method Description: cell viability (% survival relative to DMSO control); higher = less cytotoxic
# Measurement Context: 10 nM; 72 h
Counter-ions that a name gives are not always drawn.
Readout Label: cell viability

Examples with their reported cell viability follow.
| Compound | cell viability |
| --- | --- |
| Oc1ncc(F)c(O)n1 | 52.3% |
| CCC(CC#N)OC(=O)N[C@@H](C)c1cccc(NC(=O)Nc2ccc(-c3cnco3)c(OC)c2)c1 (stereo in doubt) | 72.1% |
| O=C(c1c2ccccc2cc2ccccc12)N1CCC(N2CCC[C@@H](C(=O)N3CCOCC3)C2)CC1 | 88.4% |
| CC(C)(Cc1ccccc1)NCC(O)c1ccc(O)c(NS(C)(=O)=O)c1 (configuration not stated) [Zinterol hydrochloride] | 79.5% |
| O=C(CCl)N(CCCNC(=O)C(F)(F)F)c1ccc([N+](=O)[O-])cc1 | 81.5% |

Lab note: measured cell viability of O=c1[nH]c(=O)n([C@H]2C[C@H](O)[C@@H](CO)O2)cc1I was 59.9%

Measured cell viability, O=C(Oc1cccc(F)c1OC(=O)c1cccc(O)c1)c1cccc(O)c1 : 27.8%

* * *

# maps each entry to its cell viability
# Test system: myeloid leukemia patient primary cells Pat.12
# Method Description: cell viability (% survival relative to DMSO control); higher = less cytotoxic
# Measurement Context: 1000 nM; 72 h
Entry rule: numbers only, all in %.

| Smiles | Unit String | Endpoint Value |
| --- | --- | --- |
| c1ccc2c(c1)SCc1c-2[nH]c2ccccc12 | % | 81.1 |
| O=C(c1c2ccccc2cc2ccccc12)N1CCC(N2CCC[C@@H](C(=O)N3CCOCC3)C2)CC1 | % | 80.6 |

Shift focus to the following entry.
The reported value for C=C1NC(=O)c2cc(CN(C)c3ccc(C(=O)N[C@@H](CCC(=O)O)C(=O)O)s3)ccc2N1 in terms of cell viability is 95.9
